Tested on: HL-60 cells
assay protocol: modified MTT method, proliferation of HL-60 cells
Type: cell-based
measurement context: Homo sapiens, HL-60, 48 h, Batch 1, 48 h; read-out: IC50 on the growth of HL-60 cells
Procedure: […] Influence of the five test samples on the proliferation of 7 human tumor cell lines was determined via a modified MTT method. […] The inhibition rate was calculated by using Microsoft Excel 2003, and median inhibitory concentration IC50 was calculated with a LOGIT method, which was used as an indicator for judging the inhibitory capability.
quantity: IC50

{"compound": "C[C@H]1[C@H](OC(=O)CCC(=O)O)O[C@@H]2O[C@@]3(C)CC[C@H]4[C@H](C)CC[C@@H]1[C@@]24OO3 [artesunate]", "value reported": "> 1000 µM"}
{"compound": "CO[C@H]1O[C@@H]2O[C@@]3(C)CC[C@H]4[C@H](C)CC[C@@H]([C@H]1C)[C@@]24OO3", "value reported": "> 1000 µM"}
{"compound": "COc1cccc2c1C(=O)c1c(O)c3c(c(O)c1C2=O)C[C@@](O)(C(=O)CO)C[C@@H]3O[C@H]1C[C@H](N)[C@H](O)[C@H](C)O1", "value reported": "1.72 µM"}

[ask] Which IC50 value is on record for C[C@@H]1CC[C@H]2[C@@H](C)C(=O)O[C@@H]3O[C@@]4(C)CC[C@@H]1[C@]32OO4 ?
[reply] > 1000 µM

[ask] Then what about the compound C[C@H]1[C@@H](O)O[C@@H]2O[C@@]3(C)CC[C@H]4[C@H](C)CC[C@@H]1[C@@]24OO3 [dihydroartemisinin] ?
[reply] > 1000 µM

###

Tested on: PC-3 cells
assay protocol: modified MTT method, proliferation of PC-3 cells
Type: cell-based
measurement context: Homo sapiens, PC-3, 48 h, Batch 2, 48 h; read-out: IC50 on the growth of PC-3 cells
pIC50: −log10 of the molar value.
quantity: pIC50

{"compound": "C[C@H]1[C@H](OC(=O)CCC(=O)O)O[C@@H]2O[C@@]3(C)CC[C@H]4[C@H](C)CC[C@@H]1[C@@]24OO3 [artesunate]", "test system": "PC-3 cells", "value reported": "< 3.00"}
{"compound": "COc1cccc2c1C(=O)c1c(O)c3c(c(O)c1C2=O)C[C@@](O)(C(=O)CO)C[C@@H]3O[C@H]1C[C@H](N)[C@H](O)[C@H](C)O1", "test system": "PC-3 cells", "value reported": 5.02}
{"compound": "CO[C@H]1O[C@@H]2O[C@@]3(C)CC[C@H]4[C@H](C)CC[C@@H]([C@H]1C)[C@@]24OO3", "test system": "PC-3 cells", "value reported": "< 3.00"}
{"compound": "C[C@@H]1CC[C@H]2[C@@H](C)C(=O)O[C@@H]3O[C@@]4(C)CC[C@@H]1[C@]32OO4", "test system": "PC-3 cells", "value reported": "< 3.00"}

Turning now to a further compound:
[ask] GET /values?readout=pIC50&item= C[C@H]1[C@@H](O)O[C@@H]2O[C@@]3(C)CC[C@H]4[C@H](C)CC[C@@H]1[C@@]24OO3 [dihydroartemisinin]
[reply] < 3.00

###

Test system: A549 cells
assay protocol: modified MTT method, proliferation of A549 cells
Type: cell-based
measurement context: Homo sapiens, A549, 48 h, Batch 1, 48 h; read-out: IC50 on the growth of A549 cells
Recorded IC50 by entry

// solved cases for IC50 follow
{"molecule": "C[C@H]1[C@@H](O)O[C@@H]2O[C@@]3(C)CC[C@H]4[C@H](C)CC[C@@H]1[C@@]24OO3 [dihydroartemisinin]", "IC50": "> 1000 µM"}
{"molecule": "C[C@H]1[C@H](OC(=O)CCC(=O)O)O[C@@H]2O[C@@]3(C)CC[C@H]4[C@H](C)CC[C@@H]1[C@@]24OO3 [artesunate]", "IC50": "> 1000 µM"}

[ask] Record C[C@@H]1CC[C@H]2[C@@H](C)C(=O)O[C@@H]3O[C@@]4(C)CC[C@@H]1[C@]32OO4 : what is its IC50 with A549 cells?
[reply] > 1000 µM

[ask] Entry COc1cccc2c1C(=O)c1c(O)c3c(c(O)c1C2=O)C[C@@](O)(C(=O)CO)C[C@@H]3O[C@H]1C[C@H](N)[C@H](O)[C@H](C)O1 please
[reply] 10.7 µM

[ask] Same question, CO[C@H]1O[C@@H]2O[C@@]3(C)CC[C@H]4[C@H](C)CC[C@@H]([C@H]1C)[C@@]24OO3 this time
[reply] > 1000 µM
